Here the recorded damage to plants, Wh is given for each entry.
Test system: Wheat
assayText: Post-emergence herbicidal activity (Example 32)
Type: in vivo
Set-up: key: 0-3 scale: 0 = 0-25% damage, 3 = 75-99% kill, 3+ = 100% kill
studyConditions: 5 kg/ha, 3 weeks after spraying

As a guide, the following entries are already answered.
{"compound": "COC(=O)C(C)Oc1ccc(N(C)c2ccc(Cl)cc2[N+](=O)[O-])cc1 (stereo not shown) [Compound 27]", "testSystem": "Wheat", "damage to plants, Wh": "3+ (3+ represents 100% kill)"}
{"compound": "C#CCN(c1ccc(OC(C)C(=O)OC)cc1)c1ccc(C(F)(F)F)cc1[N+](=O)[O-] (stereo not shown) [Compound 81]", "testSystem": "Wheat", "damage to plants, Wh": "3 (3 represents 75 to 99% kill)"}
{"compound": "CC(Oc1ccc(Nc2ccc(Cl)cc2[N+](=O)[O-])cc1)C(=O)OC1CCCCC1 (stereo not shown) [Compound 79]", "testSystem": "Wheat", "damage to plants, Wh": "3 (3 represents 75 to 99% kill)"}

Kindly note the recorded damage to plants, Wh for CC(Oc1ccc(N(C)c2ccc(C(F)(F)F)cc2[N+](=O)[O-])cc1)C(=O)OC1CCCCC1 (stereo not shown) [Compound 80] , which is 3 (3 represents 75 to 99% kill)
